Please respond with reported Binding affinity (RU) for every item in the list.
- study.target: acetylcholine receptor
- experimental.protocol: SPR, peptide at 10 µM on acetylcholine receptor
The response must be a number in RU with no trailing unit.

Noted for RLLRK [5mer-63] : its Binding affinity (RU) reads 86

Just so you know, measured Binding affinity (RU) for RSLQR [5mer-51] came out at 70

Just so you know, measured Binding affinity (RU) for KGQRR [5mer-381] came out at 87

Sample KLLCR [5mer-50] ; Binding affinity (RU) observed: 63

Form field Binding affinity (RU), entry KQLYR [5mer-57] : 73

The binder listed as KGQCR [5mer-398] has a reported Binding affinity (RU) of 71

The binder KWVSK [5mer-58] showed Binding affinity (RU) equal to 75

Lookup result for RRVQK [5mer-88] ; measured Binding affinity (RU): 73

// Binding affinity (RU) lookup, binder = KLQSK [5mer-71] , result: 68

RRITK [5mer-397] yielded Binding affinity (RU) of 52

The binder KRFQK [5mer-359] showed Binding affinity (RU) equal to 79

Sure, the documented Binding affinity (RU) for KSLRK [5mer-384] is 75

Item: RQLYR [5mer-67] | Binding affinity (RU): 86

Value of measured Binding affinity (RU) for the entry KVFTK [5mer-373] : 87

response.value for KRFCK [5mer-56] (field: Binding affinity (RU)) = 59

Documented Binding affinity (RU) of RGIYR [5mer-81] : 79

// recorded Binding affinity (RU) for RWFQR [5mer-94] : 50

The measured Binding affinity (RU) associated with RRLSK [5mer-378] reads 65

Notebook: KQLCR [5mer-375] , Binding affinity (RU) read as 84

RQRYK [5mer-82] has a reported Binding affinity (RU) of 84

Per the record, RQLCK [5mer-360] has Binding affinity (RU) of 66

get_value(item= KSRLR [5mer-379] , readout=Binding affinity (RU)) returns 79

Binding affinity (RU) for RRILR [5mer-387] is 52

Reported Binding affinity (RU) of KQVYR [5mer-349] : 50

Noted for RWFLR [5mer-79] : its Binding affinity (RU) reads 82

// field: Binding affinity (RU); key: RRFSR [5mer-55] ; value = 58

Measured Binding affinity (RU), RSQTR [5mer-354] : 64

Record RGISK [5mer-371] , field Binding affinity (RU): 86

Query KWYCK [5mer-98] yields Binding affinity (RU) of 68

GET /value?item= RGFRK [5mer-357] &field=Binding affinity (RU) returns 54

Per the records, this binder ( KLFCK [5mer-388] ) has Binding affinity (RU) equal to 78

For reference, reported Binding affinity (RU) for RWVCK [5mer-395] stands at 50

So, KGQLR [5mer-376] ? Its Binding affinity (RU) was 65

The measured Binding affinity (RU) associated with KWRRR [5mer-389] reads 57
